Collected melting point values appear next to each entry.

Consider the following illustrative entries.
| molecule | result |
| --- | --- |
| COc1ccc(CCNC(=O)CCn2c(/C=C/C(=O)O)nc3ccccc32)cc1 | 219 to 220 °C |
| O=C(O)/C=C/c1nc2ccccc2n1CCC(=O)Nc1ccc(Cl)cc1 | 158 to 160 °C |
| O=C(O)/C=C/c1nc2ccccc2n1CCC(=O)N1CCOCC1 | 207 to 209 °C |
| Cc1ccc(NC(=O)CCn2c(-c3nc(C(=O)O)cs3)nc3ccccc32)cc1F [Compound 13j] | 204 to 206 °C |

Item under review: Cc1ccc(NC(=O)CCn2c(CCC(=O)O)nc3ccccc32)cc1 . Reported melting point? 66 to 68 °C

And for O=C(CCn1c(-c2nc(C(=O)O)cs2)nc2ccccc21)Nc1cc(Cl)cc(Cl)c1 [Compound 13i] ? 192 to 194 °C

Another molecule to check: O=C(CCn1c(-c2nc(C(=O)O)cs2)nc2ccccc21)Nc1ccc(C(F)(F)F)cc1 [Compound 13h] 176 to 178 °C

Similarly, Cc1ccc(NC(=O)CCn2c(/C=C/C(=O)O)nc3ccccc32)cc1 ? 221 to 222 °C

Note, next up: O=C(O)/C=C/c1nc2ccccc2n1CCC(=O)NCc1ccc(Br)cc1 210 to 212 °C

Now consider COc1ccc(NC(=O)CCn2c(/C=C/C(=O)O)nc3ccccc32)cc1 . 215 to 217 °C
